Attribution: paper PMC9785441

Tested on: G. lamblia (WB strain) trophozoites
protocol description: G. lamblia trophozoite viability assay (CellTiter-Glo)
Assay type: cell-based, Giardia lamblia
assay setup: Giardia duodenalis, 48 h
measured metric: EC50 (µM)
Numbers only, in µM.

Asked: What value of EC50 has been reported for the following molecule? Cc1ncc([N+](=O)[O-])n1CCO [Metronidazole, metronidazole, reference compound]
Given back: 5.7

---

Test system: B10R cells
protocol description: Cytotoxicity to B10R host cells (nuclei count in the amastigote assay)
Format: cell-based
assay setup: mouse monocyte host cells, 72 h
Protocol: For the intracellular amastigote stage assay, L. donovani was incubated at a density of 1 × 10^6 parasites/mL for six days at 29 °C before infection to enrich the proportion of metacyclic promastigotes. B10R monocyte cell lines were cultured in RPMI supplemented with 10% FBS and 1%penicillin/streptomycin at 37 °C in 5% CO2. After 72 h, cells were counted with a hemocytometer and mixed with the six-day-old parasites. […] Plates were incubated at 37 °C and 5% CO2 for 72 h. […]
measured metric: log10 of CC50 (log10 of the value in nM)
Values are log10 of CC50 in nM.

CCC[CH2][Sn]([CH2]CCC)([CH2]CCC)[O]C(=O)CCC(=O)Nc1ccc(OC)cc1    2.23

Your task in this section: give log10 of CC50 for each listed record.
1. COc1ccc(NC(=O)CCC(=O)[O][Sn]([c]2ccccc2)([c]2ccccc2)[c]2ccccc2)cc1
2. COc1ccc(NC(=O)CCC(=O)[O-])cc1.[Na+] [MS26Na]
3. COc1ccc(NC(=O)CCC(=O)[O][Sn]([CH]2CCCCC2)([CH]2CCCCC2)[CH]2CCCCC2)cc1
4. COc1ccc(NC(=O)CCC(=O)[O][Sn]([CH3])([CH3])[CH3])cc1
5. CCC[CH2][Sn]([Cl])([Cl])[O]C(=O)CCC(=O)Nc1ccc(OC)cc1
6. CCC[CH2][Sn]([CH2]CCC)([O]C(=O)CCC(=O)Nc1ccc(OC)cc1)[O]C(=O)CCC(=O)Nc1ccc(OC)cc1

Given back:
1: 2.46; 2: 3.66; 3: 2.04; 4: 3.69; 5: 2.79; 6: 3.03

---

Tested on: HEK-293T cells
protocol description: HEK293 cytotoxicity assay (resazurin)
Type: cell-based
assay setup: human embryonic kidney cells, 48 h, max 4 µM; read-out: CC50 HEK923
For each entry below, report its CC50 value.

C=[CH][Sn]([CH]=C)([O]C(=O)CCC(=O)Nc1ccc(OC)cc1)[O]C(=O)CCC(=O)Nc1ccc(OC)cc1    > 4000 nM
CCC[CH2][Sn]([CH2]CCC)([CH2]CCC)[O]C(=O)CCC(=O)Nc1ccc(OC)cc1    140 nM
COc1ccc(NC(=O)CCC(=O)[O][Sn]([CH3])([CH3])[CH3])cc1    1240 nM
CCC[CH2][Sn]([Cl])([Cl])[O]C(=O)CCC(=O)Nc1ccc(OC)cc1    > 4000 nM
CCC[CH2][Sn]([CH2]CCC)([O]C(=O)CCC(=O)Nc1ccc(OC)cc1)[O]C(=O)CCC(=O)Nc1ccc(OC)cc1    370 nM
COc1ccc(NC(=O)CCC(=O)[O-])cc1.[Na+] [MS26Na]    > 4000 nM
COc1ccc(NC(=O)CCC(=O)[O][Sn]([CH]2CCCCC2)([CH]2CCCCC2)[CH]2CCCCC2)cc1    110 nM

Next compound, please.
Asked: Requested field: CC50. Item: COc1ccc(NC(=O)CCC(=O)[O][Sn]([c]2ccccc2)([c]2ccccc2)[c]2ccccc2)cc1
Given back: 360 nM

---

System: N. fowleri (KUL strain) trophozoites
protocol description: N. fowleri trophozoite viability assay (CellTiter-Glo)
Assay type: cell-based, Naegleria fowleri
assay setup: 48 h
Kindly supply the reported pEC50 values for the records listed here.
Answers are plain numbers, as −log10 of the molar value.

Here is how some compounds turned out for pEC50.
COc1ccc(NC(=O)CCC(=O)[O][Sn]([CH]2CCCCC2)([CH]2CCCCC2)[CH]2CCCCC2)cc1    5.12
CCC[CH2][Sn]([CH2]CCC)([CH2]CCC)[O]C(=O)CCC(=O)Nc1ccc(OC)cc1    5.82
COc1ccc(NC(=O)CCC(=O)[O][Sn]([c]2ccccc2)([c]2ccccc2)[c]2ccccc2)cc1    5.49

Next compound, please.
Asked: Notebook: pull reported pEC50 for N. fowleri (KUL strain) trophozoites, entry C[CH2][Sn]([CH2]C)([CH2]C)[O]C(=O)CCC(=O)Nc1ccc(OC)cc1
Given back: 5.85

---

Test system: L. donovani intracellular amastigotes
protocol description: L. donovani intracellular amastigote assay in B10R cells (high content imaging)
Assay type: cell-based, Leishmania donovani
assay setup: in B10R cells, 72 h; read-out: EC50 L. donovani ntracelular amastigotes
So I've got a bunch of molecules here, and I need their EC50 values.

Before answering, review these 3 worked examples.
COc1ccc(NC(=O)CCC(=O)O)cc1    1080 nM
COc1ccc(NC(=O)CCC(=O)[O][Sn]([c]2ccccc2)([c]2ccccc2)[c]2ccccc2)cc1    9100 nM
C=[CH][Sn]([CH]=C)([O]C(=O)CCC(=O)Nc1ccc(OC)cc1)[O]C(=O)CCC(=O)Nc1ccc(OC)cc1    > 20000 nM

Consider the following items and state reported EC50 for each.
1. CCC[CH2][Sn]([CH2]CCC)([CH2]CCC)[O]C(=O)CCC(=O)Nc1ccc(OC)cc1
2. CCC[CH2][Sn]([Cl])([Cl])[O]C(=O)CCC(=O)Nc1ccc(OC)cc1
3. COc1ccc(NC(=O)CCC(=O)[O-])cc1.[Na+] [MS26Na]
4. CCC[CH2][Sn]([CH2]CCC)([O]C(=O)CCC(=O)Nc1ccc(OC)cc1)[O]C(=O)CCC(=O)Nc1ccc(OC)cc1
5. COc1ccc(NC(=O)CCC(=O)[O][Sn]([CH3])([CH3])[CH3])cc1

Given back:
["210 nM", "> 20000 nM", "3880 nM", "280 nM", "3260 nM"]

Asked: Given the molecule C[CH2][Sn]([CH2]C)([CH2]C)[O]C(=O)CCC(=O)Nc1ccc(OC)cc1 , what is its reported EC50?
Given back: 190 nM

---

protocol description: Cytotoxicity to B10R host cells (nuclei count in the amastigote assay)
Type: cell-based
assay setup: mouse, B10R monocyte cells co-cultured with L. donovani parasites
measured metric: CC50 at 72 h (nM)
Give bare numbers, in nM.

Asked: What CC50 at 72 h value was documented for this molecule, COc1ccc(NC(=O)CCC(=O)O)cc1 [MS26] ?
Given back: 2380

---

Tested on: T. cruzi (infecting C2C12)
protocol description: T. cruzi intracellular amastigote assay in C2C12 cells (high content imaging)
Assay type: cell-based, Trypanosoma cruzi
assay setup: Trypanosoma cruzi, C2C12, 72 h, read-out: EC50 T. cruzi (infecting C2C12)
measured metric: EC50 (µM)
One number for each entry, in µM.

Asked: Looking for the measured EC50 of O=C(Cn1ccnc1[N+](=O)[O-])NCc1ccccc1 [Benznidazole, benznidazole, reference compound] , can you help?
Given back: 4.71

---

Test system: G. lamblia (WB strain) trophozoites
protocol description: G. lamblia trophozoite viability assay (CellTiter-Glo)
Format: cell-based, Giardia lamblia
assay setup: 48 h
Could you please report measured EC50 for the items listed next?

Example compounds with recorded EC50:
C=[CH][Sn]([CH]=C)([O]C(=O)CCC(=O)Nc1ccc(OC)cc1)[O]C(=O)CCC(=O)Nc1ccc(OC)cc1    > 10 µM
CCC[CH2][Sn]([CH2]CCC)([CH2]CCC)[O]C(=O)CCC(=O)Nc1ccc(OC)cc1    1.03 µM
COc1ccc(NC(=O)CCC(=O)[O][Sn]([c]2ccccc2)([c]2ccccc2)[c]2ccccc2)cc1    5.3 µM
COc1ccc(NC(=O)CCC(=O)[O-])cc1.[Na+] [MS26Na]    > 10 µM
COc1ccc(NC(=O)CCC(=O)[O][Sn]([CH]2CCCCC2)([CH]2CCCCC2)[CH]2CCCCC2)cc1    > 10 µM
C[CH2][Sn]([CH2]C)([CH2]C)[O]C(=O)CCC(=O)Nc1ccc(OC)cc1    8 µM
CCC[CH2][Sn]([Cl])([Cl])[O]C(=O)CCC(=O)Nc1ccc(OC)cc1    > 10 µM
CCC[CH2][Sn]([CH2]CCC)([O]C(=O)CCC(=O)Nc1ccc(OC)cc1)[O]C(=O)CCC(=O)Nc1ccc(OC)cc1    > 10 µM

We now examine a further compound.
Asked: // returns reported EC50 for input COc1ccc(NC(=O)CCC(=O)[O][Sn]([CH3])([CH3])[CH3])cc1
Given back: > 10 µM

---

Exercise: state measured log10 CC50 for each of the compounds provided.
Tested on: C2C12 cells
protocol description: Cytotoxicity to C2C12 host cells
Format: cell-based
assay setup: mouse myoblast host cells, 72 h
Please be aware that the numbers have been log10-transformed from CC50 in nM.

COc1ccc(NC(=O)CCC(=O)[O][Sn]([c]2ccccc2)([c]2ccccc2)[c]2ccccc2)cc1    2.61
C[CH2][Sn]([CH2]C)([CH2]C)[O]C(=O)CCC(=O)Nc1ccc(OC)cc1    3.45
CCC[CH2][Sn]([Cl])([Cl])[O]C(=O)CCC(=O)Nc1ccc(OC)cc1    4.26
COc1ccc(NC(=O)CCC(=O)[O-])cc1.[Na+] [MS26Na]    3.21
CCC[CH2][Sn]([CH2]CCC)([O]C(=O)CCC(=O)Nc1ccc(OC)cc1)[O]C(=O)CCC(=O)Nc1ccc(OC)cc1    2.15
CCC[CH2][Sn]([CH2]CCC)([CH2]CCC)[O]C(=O)CCC(=O)Nc1ccc(OC)cc1    2.34

Consider the record given below.
Asked: What measured log10 CC50 is associated with COc1ccc(NC(=O)CCC(=O)[O][Sn]([CH3])([CH3])[CH3])cc1 on C2C12 cells?
Given back: 3.97
